molecular target: human TAS1R2-I486V/TAS1R3-WT (Homo sapiens, UniProt Q7RTX0+Q8TE23, I486V); assay: Calcium mobilisation assay, TAS1R2 variant I486V with TAS1R3-WT
Sequence (Q8TE23 20-839 I486V): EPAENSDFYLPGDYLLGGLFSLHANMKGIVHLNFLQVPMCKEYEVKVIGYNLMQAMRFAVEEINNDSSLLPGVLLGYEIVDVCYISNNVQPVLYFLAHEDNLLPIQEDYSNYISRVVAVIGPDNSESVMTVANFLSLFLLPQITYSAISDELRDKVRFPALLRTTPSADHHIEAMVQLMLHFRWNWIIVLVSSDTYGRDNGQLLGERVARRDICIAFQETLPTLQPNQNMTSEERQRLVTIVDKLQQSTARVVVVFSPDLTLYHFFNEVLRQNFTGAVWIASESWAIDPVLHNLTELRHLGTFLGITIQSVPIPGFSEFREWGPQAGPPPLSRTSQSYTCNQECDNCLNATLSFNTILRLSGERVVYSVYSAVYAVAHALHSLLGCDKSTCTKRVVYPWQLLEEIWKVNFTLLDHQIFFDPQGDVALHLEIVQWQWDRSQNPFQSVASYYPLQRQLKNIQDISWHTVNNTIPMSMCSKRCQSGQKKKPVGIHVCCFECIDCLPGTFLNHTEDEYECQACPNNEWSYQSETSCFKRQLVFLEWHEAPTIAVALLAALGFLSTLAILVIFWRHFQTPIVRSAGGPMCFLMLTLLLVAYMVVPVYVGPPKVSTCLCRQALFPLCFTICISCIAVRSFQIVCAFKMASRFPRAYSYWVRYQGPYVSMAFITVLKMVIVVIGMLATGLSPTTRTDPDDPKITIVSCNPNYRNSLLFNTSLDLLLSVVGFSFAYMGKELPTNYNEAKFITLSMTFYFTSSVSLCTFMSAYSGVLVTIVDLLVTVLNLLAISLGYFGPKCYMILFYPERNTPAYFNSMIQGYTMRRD
Sequence (Q7RTX0 21-852): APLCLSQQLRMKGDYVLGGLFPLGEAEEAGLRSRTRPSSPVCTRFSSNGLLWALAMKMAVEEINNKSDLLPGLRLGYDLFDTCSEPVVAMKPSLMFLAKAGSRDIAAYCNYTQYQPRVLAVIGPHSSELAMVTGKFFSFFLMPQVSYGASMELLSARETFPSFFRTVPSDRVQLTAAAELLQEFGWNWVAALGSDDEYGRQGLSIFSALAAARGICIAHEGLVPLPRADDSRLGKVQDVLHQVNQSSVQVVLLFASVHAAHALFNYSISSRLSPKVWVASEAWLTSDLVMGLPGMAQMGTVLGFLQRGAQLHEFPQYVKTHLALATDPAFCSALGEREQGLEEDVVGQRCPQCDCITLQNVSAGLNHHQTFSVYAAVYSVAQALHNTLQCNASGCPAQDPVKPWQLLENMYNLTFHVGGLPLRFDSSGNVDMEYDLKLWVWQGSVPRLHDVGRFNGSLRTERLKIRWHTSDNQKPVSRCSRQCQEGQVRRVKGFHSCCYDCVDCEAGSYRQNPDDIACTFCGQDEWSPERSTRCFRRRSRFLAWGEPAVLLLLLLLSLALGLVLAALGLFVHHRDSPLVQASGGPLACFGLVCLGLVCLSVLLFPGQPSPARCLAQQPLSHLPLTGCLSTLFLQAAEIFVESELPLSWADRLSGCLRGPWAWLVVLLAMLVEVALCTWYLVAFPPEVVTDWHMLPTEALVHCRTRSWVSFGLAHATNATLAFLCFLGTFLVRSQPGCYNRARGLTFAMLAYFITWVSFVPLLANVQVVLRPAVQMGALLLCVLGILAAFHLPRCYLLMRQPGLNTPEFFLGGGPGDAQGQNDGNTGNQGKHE

>  <COMPOUND>
C[C@H](CC[C@@H](O[C@@H]1O[C@H](CO[C@@H]2O[C@H](CO)[C@@H](O)[C@H](O)[C@H]2O)[C@@H](O)[C@H](O)[C@H]1O[C@@H]1O[C@H](CO)[C@@H](O)[C@H](O)[C@H]1O)C(C)(C)O)[C@H]1CC[C@@]2(C)[C@@H]3CC=C4[C@@H](CC[C@H](O[C@@H]5O[C@H](CO[C@@H]6O[C@H](CO)[C@@H](O)[C@H](O)[C@H]6O)[C@@H](O)[C@H](O)[C@H]5O)C4(C)C)[C@]3(C)[C@H](O)C[C@]12C [Mogroside V, mogroside V]

>  <UNITS_SYMBOL>
µM

>  <EC50>
20.1

$$$$
>  <COMPOUND>
C=C1C[C@@]23CC[C@H]4[C@@](C)(CCC[C@@]4(C)C(=O)O[C@@H]4O[C@H](CO)[C@@H](O)[C@H](O[C@@H]5O[C@H](CO)[C@@H](O)[C@H](O)[C@H]5O)[C@H]4O[C@@H]4O[C@H](CO)[C@@H](O)[C@H](O)[C@H]4O)[C@@H]2CC[C@]1(O[C@@H]1O[C@H](CO)[C@@H](O)[C@H](O[C@@H]2O[C@H](CO)[C@@H](O)[C@H](O)[C@H]2O)[C@H]1O[C@@H]1O[C@H](CO)[C@@H](O)[C@H](O)[C@H]1O)C3 [Rebaudioside M, rebaudioside M]

>  <UNITS_SYMBOL>
µM

>  <EC50>
17.6

$$$$
>  <COMPOUND>
C=C(C)[C@@H]1CC=C(/C=N/O)CC1 [Perillartine, perillartine]

>  <UNITS_SYMBOL>
µM

>  <EC50>
17.7

$$$$

These entries and their values trace back to paper PMC11945486.
